target: HLA-B*08:01; assay: IEDB peptide-MHC binding, purified MHC/competitive/radioactivity; filed as Kd, often an IC50 or EC50 that approximates it; bounds were set here for any values at or beyond the usual limits of such assays; details: source organism: Dengue virus 1 Singapore/S275/1990
PROPERTY NAME: Kd (µM)
// units = µM; emit number, no label

Q. Which Kd value is on record for `TWLPVLLGSL` ?
A. 9.43

###

target: HLA-B*54:01; test: IEDB peptide-MHC binding, purified MHC/competitive/radioactivity; filed as Kd, often an IC50 or EC50 that approximates it; bounds were set here for any values at or beyond the usual limits of such assays; settings: source organism: Lassa virus Josiah
PROPERTY NAME: Kd (µM)
Give the value in µM but do not write µM after it.

Q. Query the reported Kd for HLA-B*54:01; item: `WPYIASRTSI`
A. 0.714
